Tested on: B. Subtilis
Assay type: cell-based
Settings: 18 h
Square brackets hold non-standard residues; d marks the D form. Side chains are listed from the residue outwards. Peptide text beside a SMILES is read from it. * marks the point of attachment. X1 = CC(C)(C)c1cc(C(C)(C)C)c2[nH]c(C(C)(C)C)c(CC(NC(=O)[C@@H](N)CCCNC(=N)N)C(=O)*)c2c1; βAla = NCCC(=O)O
Reported IC50 B. Subtilis values for a set of compounds
Numbers only; they are read as µg/mL.

N=C(N)NCCC[C@H](NC(=O)[C@@H](N)Cc1c[nH]c2ccccc12)C(=O)NCCCC[C@H](NC(=O)[C@H](CCCNC(=N)N)NC(=O)[C@@H](N)Cc1c[nH]c2ccccc12)C(=O)NCCCC[C@H](NC(=O)[C@H](CCCCNC(=O)[C@H](CCCNC(=N)N)NC(=O)[C@@H](N)Cc1c[nH]c2ccccc12)NC(=O)[C@H](CCCNC(=N)N)NC(=O)[C@@H](N)Cc1c[nH]c2ccccc12)C(=O)NCCC(N)=O [Dendrimer 4D-04, reference compound]	4.2
N=C(N)NCCC[C@H](NC(=O)[C@@H](N)Cc1c[nH]c2ccccc12)C(=O)NCCCC[C@H](NC(=O)[C@H](CCCCNC(=O)[C@H](CCCNC(=N)N)NC(=O)[C@@H](N)Cc1c[nH]c2ccccc12)NC(=O)[C@H](CCCNC(=N)N)NC(=O)[C@@H](N)Cc1c[nH]c2ccccc12)C(=O)NCCC(N)=O [Dendrimer 3D-03, reference compound] (H-WRK([Arg-Trp])K([Arg-Trp])[βAla]-NH2)	14.3

Here's the next entry for you.
Record CC(C)(C)c1cc(C(C)(C)C)c2[nH]c(C(C)(C)C)c(CC(NC(=O)[C@@H](N)CCCNC(=N)N)C(=O)N[C@@H](CCCNC(=N)N)C(=O)NCCCC[C@H](NC(=O)[C@H](CCCCNC(=O)[C@H](CCCNC(=N)N)NC(=O)[C@H](Cc3c[nH]c4ccccc34)NC(=O)[C@@H](N)CCCNC(=N)N)NC(=O)[C@H](CCCNC(=N)N)NC(=O)[C@H](Cc3c[nH]c4ccccc34)NC(=O)[C@@H](N)CCCNC(=N)N)C(=O)NCCC(N)=O)c2c1 (stereo partly drawn) [Dendrimer 3D-16] (H-RWRK([Arg-Trp-Arg])K([Arg-X1])[βAla]-NH2) , field IC50 B. Subtilis: 0.9

---

System: MRSA
Assay type: cell-based, Methicillin-resistant Staphylococcus aureus
Conditions: 18 h
Square brackets hold non-standard residues; d marks the D form. Side chains are listed from the residue outwards. Peptide text beside a SMILES is read from it. Trp(2,5,7-tBu3) = CC(C)(C)c1cc(C(C)(C)C)c2[nH]c(C(C)(C)C)c(C[C@H](N)C(=O)O)c2c1; βAla = NCCC(=O)O
Reported IC50 MRSA values for a set of compounds

Guide cases for IC50 MRSA, answers given:
CC(C)(C)c1cc(C(C)(C)C)c2[nH]c(C(C)(C)C)c(C[C@H](N)C(=O)N[C@@H](CCCNC(=N)N)C(=O)NCCCC[C@H](NC(=O)[C@H](CCCNC(=N)N)NC(=O)[C@@H](N)Cc3c(C(C)(C)C)[nH]c4c(C(C)(C)C)cc(C(C)(C)C)cc34)C(=O)N[C@@H](CCCCNC(=O)[C@H](CCCNC(=N)N)NC(=O)[C@@H](N)Cc3c[nH]c4ccccc34)C(=O)NCCC(N)=O)c2c1 [Dendrimer 3D-23] (H-[Trp(2,5,7-tBu3)]RK([Arg-Trp(2,5,7-tBu3)])K([Arg-Trp])[βAla]-NH2)	0.7 mg/L
CC(C)(C)c1cc(C(C)(C)C)c2[nH]c(C(C)(C)C)c(C[C@H](N)C(=O)N[C@@H](CCCNC(=N)N)C(=O)NCCCC[C@H](NC(=O)[C@H](CCCCNC(=O)[C@H](CCCNC(=N)N)NC(=O)[C@@H](N)Cc3c[nH]c4ccccc34)NC(=O)[C@H](CCCNC(=N)N)NC(=O)[C@@H](N)Cc3c[nH]c4ccccc34)C(=O)NCCC(N)=O)c2c1 [Dendrimer 3D-13] (H-WRK([Arg-Trp])K([Arg-Trp(2,5,7-tBu3)])[βAla]-NH2)	1.7 mg/L

Here's the next entry for you.
Record CC(C)(C)c1cc(C(C)(C)C)c2[nH]c(C(C)(C)C)c(CC(NC(=O)[C@@H](N)CCCNC(=N)N)C(=O)N[C@@H](CCCNC(=N)N)C(=O)NCCCC[C@H](NC(=O)[C@H](CCCNC(=N)N)NC(=O)C(Cc3c(C(C)(C)C)[nH]c4c(C(C)(C)C)cc(C(C)(C)C)cc34)NC(=O)[C@@H](N)CCCNC(=N)N)C(=O)NCCC(N)=O)c2c1 (stereo partly drawn) , field IC50 MRSA: 0.2 mg/L

---

Reported IC50 MRSA values for a set of molecules
Test system: MRSA
Type: cell-based, Methicillin-resistant Staphylococcus aureus
Settings: 18 h
Square brackets hold non-standard residues; d marks the D form. Side chains are listed from the residue outwards. Peptide text beside a SMILES is read from it. * marks the point of attachment. X1 = CC(C)(C)c1cc(C(C)(C)C)c2[nH]c(C(C)(C)C)c(CC(NC(=O)[C@@H](N)CCCNC(=N)N)C(=O)*)c2c1; βAla = NCCC(=O)O
Numbers only; they are read as µg/mL.

N=C(N)NCCC[C@H](NC(=O)[C@H](Cc1c[nH]c2ccccc12)NC(=O)[C@@H](N)CCCNC(=N)N)C(=O)NCCCC[C@H](NC(=O)[C@H](CCCNC(=N)N)NC(=O)[C@H](Cc1c[nH]c2ccccc12)NC(=O)[C@@H](N)CCCNC(=N)N)C(=O)NCCC(N)=O [Dendrimer 2D-04, reference compound] (H-RWRK([Arg-Trp-Arg])[βAla]-NH2)	56.6

Record CC(C)(C)c1cc(C(C)(C)C)c2[nH]c(C(C)(C)C)c(CC(NC(=O)[C@@H](N)CCCNC(=N)N)C(=O)N[C@@H](CCCNC(=N)N)C(=O)NCCCC[C@H](NC(=O)[C@H](CCCCNC(=O)[C@H](CCCNC(=N)N)NC(=O)[C@H](Cc3c[nH]c4ccccc34)NC(=O)[C@@H](N)CCCNC(=N)N)NC(=O)[C@H](CCCNC(=N)N)NC(=O)[C@H](Cc3c[nH]c4ccccc34)NC(=O)[C@@H](N)CCCNC(=N)N)C(=O)NCCC(N)=O)c2c1 (stereo partly drawn) [Dendrimer 3D-16] (H-RWRK([Arg-Trp-Arg])K([Arg-X1])[βAla]-NH2) , field IC50 MRSA: 5.2

Record N=C(N)NCCC[C@H](NC(=O)[C@@H](N)Cc1c[nH]c2ccccc12)C(=O)NCCCC[C@H](NC(=O)[C@H](CCCNC(=N)N)NC(=O)[C@@H](N)Cc1c[nH]c2ccccc12)C(=O)NCCCC[C@H](NC(=O)[C@H](CCCCNC(=O)[C@H](CCCNC(=N)N)NC(=O)[C@@H](N)Cc1c[nH]c2ccccc12)NC(=O)[C@H](CCCNC(=N)N)NC(=O)[C@@H](N)Cc1c[nH]c2ccccc12)C(=O)NCCC(N)=O [Dendrimer 4D-04, reference compound] , field IC50 MRSA: 14.6

---

System: fresh sheep RBC
Type: cell-based
Settings: red cells of sheep, 1 h
property: Hemolysis HD50 (µg/mL)
Numbers only; they are read as µg/mL.

Record NCCCC[C@H](N)C(=O)N[C@@H](Cc1c[nH]c2ccccc12)C(=O)NCCN(CCNC(=O)[C@H](Cc1c[nH]c2ccccc12)NC(=O)[C@@H](N)CCCCN)CCNC(=O)[C@H](Cc1c[nH]c2ccccc12)NC(=O)[C@@H](N)CCCCN , field Hemolysis HD50: 5423

---

System: S. aureus
Format: cell-based
Details: 18 h
Square brackets hold non-standard residues; d marks the D form. Side chains are listed from the residue outwards. Peptide text beside a SMILES is read from it. * marks the point of attachment. Lys(α,ε-(ArgTrp)2) = N=C(N)NCCC[C@H](N)C(=O)N[C@@H](Cc1c[nH]c2ccccc12)C(=O)NCCCC[C@H](NC(=O)[C@H](Cc1c[nH]c2ccccc12)NC(=O)[C@@H](N)CCCNC(=N)N)C(=O)*; βAla = NCCC(=O)O
Reported S. Aureus IC50 values for a set of compounds
Numbers only; they are read as µg/mL.

Guide cases for S. Aureus IC50, answers given:
N=C(N)NCCC[C@H](N)C(=O)N[C@@H](Cc1c[nH]c2ccccc12)C(=O)NCCN(CCNC(=O)[C@H](Cc1c[nH]c2ccccc12)NC(=O)[C@@H](N)CCCNC(=N)N)CCNC(=O)[C@H](Cc1c[nH]c2ccccc12)NC(=O)[C@@H](N)CCCNC(=N)N	0.97
N=C(N)NCCC[C@H](N)C(=O)N[C@@H](Cc1c[nH]c2ccccc12)C(=O)NCCCC[C@H](NC(=O)[C@H](Cc1c[nH]c2ccccc12)NC(=O)[C@@H](N)CCCNC(=N)N)C(=O)NCCCC[C@H](NC(=O)[C@H](CCCCNC(=O)[C@H](Cc1c[nH]c2ccccc12)NC(=O)[C@@H](N)CCCNC(=N)N)NC(=O)[C@H](Cc1c[nH]c2ccccc12)NC(=O)[C@@H](N)CCCNC(=N)N)C(=O)NCCC(N)=O [(RW)4D, reference compound] (H-RWK([Trp-Arg])K(Lys(α,ε-(ArgTrp)2))[βAla]-NH2; N-terminus and C-terminus assumed)	16
N=C(N)NCCC[C@H](N)C(=O)N[C@@H](Cc1c[nH]c2ccccc12)C(=O)NCCCN(CCCCN(CCCNC(=O)[C@H](Cc1c[nH]c2ccccc12)NC(=O)[C@@H](N)CCCNC(=N)N)CCCNC(=O)[C@H](Cc1c[nH]c2ccccc12)NC(=O)[C@@H](N)CCCNC(=N)N)CCCNC(=O)[C@H](Cc1c[nH]c2ccccc12)NC(=O)[C@@H](N)CCCNC(=N)N	0.37

Here's the next entry for you.
Record NCCCC[C@H](N)C(=O)N[C@@H](Cc1c[nH]c2ccccc12)C(=O)NCCN(CCNC(=O)[C@H](Cc1c[nH]c2ccccc12)NC(=O)[C@@H](N)CCCCN)CCNC(=O)[C@H](Cc1c[nH]c2ccccc12)NC(=O)[C@@H](N)CCCCN , field S. Aureus IC50: 4.12

// provenance: patent US9102712B2
